Source: patent US9801961B2

Test system: native tau aggregates
Assay Protocol: TAU radioligand in vitro displacement assay ([3H]T808 autoradiography on human AD brain sections)
Format: binding
Condition Label: compound 10 nM, radioligand [3H]T808 10 nM, 50 mM Tris pH 7.4, room temperature, 30 min
Measurement Name: % displacement of [3H]T808 (10 nM) at 10 nM (%)

INSERT INTO measurements (structure_smiles, target_system, units_text, number) VALUES
  ('CN(C)c1ccn2cc(-c3ccc(N4CCOCC4)cc3)nc2n1', 'native tau aggregates', '%', 29),
  ('Cc1cccc(-c2cn3ccc(N4CCCCC4)nc3n2)c1', 'native tau aggregates', '%', 14);

I = CNc1ccn2cc(-c3ccc(OC)c(F)c3)nc2n1
II = COc1ccc(-c2cn3ccc(N4CCC4)nc3n2)cc1OC
[in] I need your help: which of the pair I , II has higher % displacement of [3H]T808 (10 nM) at 10 nM? Give the label of your selection.
[out] I
(I: 36%, II: 15%)

I = COc1ccc(-c2cn3ccc(N4CCCC4)nc3n2)cc1
II = CO[C@@H]1CCN(c2ccn3cc(-c4ccccc4)nc3n2)C1
[in] Select the item with the higher value of % displacement of [3H]T808 (10 nM) at 10 nM from the options I and II listed. # answer = label of selected item
[out] I

----------
System: native tau aggregates
Assay Protocol: TAU radioligand in vitro displacement assay ([3H]T808 autoradiography on human AD brain sections)
Format: binding
Condition Label: compound 10 nM, radioligand [3H]T808 10 nM, 50 mM Tris pH 7.4, room temperature, 30 min
Measurement Name: % displacement of [3H]T808 (10 nM) at 10 nM (%)

Solved entries (count: 5):
INSERT INTO results (structure_smiles, target_system, units_text, number) VALUES
  ('COc1ccc(-c2cn3ccc(N4CC(OC)C4)nc3n2)cc1', 'native tau aggregates', '%', 16),
  ('Cc1ccc(-c2cn3ccc(N(C)C)nc3n2)cc1', 'native tau aggregates', '%', 49),
  ('COc1ccc(-c2cn3ccc(N4CCCCC4)nc3n2)cc1', 'native tau aggregates', '%', 17),
  ('CN(C)c1ccn2cc(-c3ccc4c(c3)OCO4)nc2n1', 'native tau aggregates', '%', 46),
  ('COc1ccc(-c2cn3ccc(N4CCC(CCF)CC4)nc3n2)cc1', 'native tau aggregates', '%', 9);

a = Fc1ccc(-c2cn3ccc(N4CCC4)nc3n2)cc1
b = FCCOc1ccc(-c2cn3ccc(N4CCCC4)nc3n2)cc1
c = CN(C)c1ccn2cc(-c3ccsc3)nc2n1
d = Cc1ccc(-c2cn3ccc(N4CCC(F)CC4)nc3n2)cc1
e = FCCOc1cccc(-c2cn3ccc(NC4CC4)nc3n2)c1
[in] Sort low-to-high on % displacement of [3H]T808 (10 nM) at 10 nM, please. # list labels per requested ordering
[out] d, e, b, a, c
(d: 4%, e: 6%, b: 15%, a: 22%, c: 35%)

a = Oc1ccc(-c2cn3ccc(N4CCCC4)nc3n2)cc1
b = COc1ccc(-c2cn3ccc(N(C)C)nc3n2)cc1
[in] Would you let me know which has the greater % displacement of [3H]T808 (10 nM) at 10 nM value, a or b ? # respond with the chosen item's label
[out] b

1 = FCCOc1ccc(-c2cn3ccc(NC4CC4)nc3n2)cc1
2 = FCOc1ccc(-c2cn3ccc(N4CCC4)nc3n2)cc1
3 = COc1cccc(-c2cn3ccc(N4CCCCC4)nc3n2)c1
4 = FCOc1ccc(-c2cn3ccc(N4CCCC4)nc3n2)cc1
[in] Put the items in order so that reported % displacement of [3H]T808 (10 nM) at 10 nM rises from first to last. List the labels according to the requested ordering.
[out] 4, 3, 1, 2
(4: 9%, 3: 14%, 1: 20%, 2: 30%)

P = FCOc1cccc(-c2cn3ccc(NC4CC4)nc3n2)c1
Q = FCOc1cccc(-c2cn3ccc(N4CCCC4)nc3n2)c1
R = CNc1ccn2cc(-c3cccc(OCCCF)c3)nc2n1
S = Cc1cccc(-c2cn3ccc(N(C)C)nc3n2)c1
[in] Order these by % displacement of [3H]T808 (10 nM) at 10 nM, descending, and give the full ranking. Could you list the labels in the order requested?
[out] S, Q, P, R
(S: 51%, Q: 27%, P: 18%, R: 12%)

I = FCCOc1ccc(-c2cn3ccc(N4CCC4)nc3n2)cc1
II = FCCC1CCN(c2ccn3cc(-c4ccccc4)nc3n2)CC1
[in] Of I and II , which one carries the higher reported % displacement of [3H]T808 (10 nM) at 10 nM? Indicate which entry you chose by stating its label.
[out] I

A = Fc1cccc(-c2cn3ccc(N4CCC4)nc3n2)c1
B = Oc1cccc(-c2cn3ccc(NC4CC4)nc3n2)c1
[in] Recorded % displacement of [3H]T808 (10 nM) at 10 nM values differ for A and B ; which one is higher? API: response body contains the label of the selected item.
[out] A
(A: 22%, B: 14%)

----------
Tested on: native tau aggregates
Assay Protocol: TAU radioligand in vitro displacement assay ([3H]T808 autoradiography on human AD brain sections)
Assay type: binding
Condition Label: compound 10 nM, radioligand [3H]T808 10 nM, 50 mM Tris pH 7.4, room temperature, 30 min
Measurement Name: % displacement of [3H]T808 (10 nM) at 10 nM (%)

Known results for compounds:
INSERT INTO results (structure_smiles, units_text, number) VALUES
  ('COc1ccc(-c2cn3ccc(N(CCF)C4CC4)nc3n2)cc1', '%', 9),
  ('CNc1ccn2cc(-c3ccc(OCF)cc3)nc2n1', '%', 36),
  ('CNc1ccn2cc(-c3ccc(OCCCF)cc3)nc2n1', '%', 40);

a = CNc1ccn2cc(-c3cccc(OCF)c3)nc2n1
b = Cc1ccc(-c2cn3ccc(N4CCCCC4)nc3n2)cc1
c = FC1CCN(c2ccn3cc(-c4cnccn4)nc3n2)CC1
[in] Hi! Can you put these in order of % displacement of [3H]T808 (10 nM) at 10 nM, lowest number first? Return the labels ranked in the requested order, please.
[out] b, c, a
(b: 8%, c: 20%, a: 33%)

----------
Tested on: native tau aggregates
Assay Protocol: TAU radioligand in vitro displacement assay ([3H]T808 autoradiography on human AD brain sections)
Assay type: binding
Condition Label: compound 10 nM, radioligand [3H]T808 10 nM, 50 mM Tris pH 7.4, room temperature, 30 min
Measurement Name: % displacement of [3H]T808 (10 nM) at 10 nM (%)

INSERT INTO assay_data (compound, number) VALUES
  ('CNc1ccn2cc(-c3ccc(OC)c(OC)c3)nc2n1 [Example 142]', 21),
  ('FCCC1CCN(c2ccn3cc(-c4ccc5c(c4)OCCO5)nc3n2)CC1 [Example 58]', 18),
  ('CNc1ccn2cc(-c3cccc(OCCF)c3)nc2n1 [Example 129]', 16),
  ('FC1CCN(c2ccn3cc(-c4ccc5c(c4)OCO5)nc3n2)CC1 [Example 7]', 21);
